# credit: ChEMBL document CHEMBL1145925

These records show pKi for UniProtKB P00915.
Sequence (P00915 whole entry): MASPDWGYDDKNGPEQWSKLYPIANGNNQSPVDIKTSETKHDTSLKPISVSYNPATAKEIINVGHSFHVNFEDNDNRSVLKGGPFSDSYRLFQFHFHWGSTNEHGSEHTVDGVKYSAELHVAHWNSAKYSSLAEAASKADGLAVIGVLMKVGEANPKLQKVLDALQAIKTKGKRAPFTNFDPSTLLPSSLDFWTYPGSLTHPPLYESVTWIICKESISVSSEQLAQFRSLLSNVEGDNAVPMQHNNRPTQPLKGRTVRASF
Numbers only, as −log10 of the molar value.

compound	measurement
NS(=O)(=O)OCCc1ccccc1 [SULFAMIC ACID PHENETHYL ESTER]	6.39
C#CCCOS(N)(=O)=O	3.00
CCCCCCCCCCCOS(N)(=O)=O [SULFAMIC ACID UNDECYL ESTER]	6.37

Batch request: pKi per item, same order as input.
1. CC(C)OS(N)(=O)=O [SULFAMIC ACID ISOPROPYL ESTER]
2. C[C@]12CCC(OS(N)(=O)=O)CC1=C[C@@H](O)C1C2CC[C@]2(C)C(=O)CCC12 (stereo partly drawn)
3. C[C@]12CCC(OS(N)(=O)=O)CC1=CC(=O)C1C2CC[C@]2(C)C(=O)CCC12 (stereo partly drawn)

Result string:
[3.16, 6.40, 6.39]

###

Entries below carry reported Ki on Carbonic anhydrase 9 (Homo sapiens).
Answers are plain numbers, in nM.

Would you please look over these solved cases?
molecule	measuredAttribute	measurement
CCCCCCCCCCCCCCCCCCOS(N)(=O)=O [SULFAMIC ACID OCTADECYL ESTER]	Ki	120
NS(=O)(=O)OC(C(F)(F)F)C(F)(F)F	Ki	279

Quick one: give me Ki for each item below, same order please.
1. C[C@]12CCC(OS(N)(=O)=O)CC1=CC(=O)C1C2CC[C@]2(C)C(=O)CCC12 (some centres undefined)
2. NS(=O)(=O)OCCc1ccccc1 [SULFAMIC ACID PHENETHYL ESTER]

Result string:
1: 76; 2: 12

The following molecules each have a reported value; give each one's Ki.
1. CCCCCCCCCCCCOS(N)(=O)=O [SULFAMIC ACID DODECYL ESTER]
2. NS(=O)(=O)OCC(F)(F)F
3. C[C@]12CCC(OS(N)(=O)=O)CC1=C[C@@H](O)C1C2CC[C@]2(C)C(=O)CCC12 (some centres undefined)
4. Cc1ccc(COS(N)(=O)=O)cc1

Result string:
1. 9
2. 458
3. 65
4. 13

###

Exercise: state measured pKi for each of the molecules provided.
Biological target: UniProtKB P00915
Numbers only, as −log10 of the molar value.

Please review the following examples before continuing.
molecule	pKi
NS(=O)(=O)OC1CCCCC1 [SULFAMIC ACID CYCLOHEXYL ESTER]	4.23
C=CCCOS(N)(=O)=O	3.10
CCCCCCCCCCCCCCCCOS(N)(=O)=O [SULFAMIC ACID HEXADECYL ESTER]	4.24

// each listed molecule needs a value for pKi
1. CCCCOS(N)(=O)=O [SULFAMIC ACID BUTYL ESTER]
2. CCCOS(N)(=O)=O [SULFAMIC ACID PROPYL ESTER]

Result string:
5.51
5.43
